Each record here notes measured Biodistribution: muscle.
Test system: PSMA + PC-3 PiP and PSMA − PC-3 flu tumor xenografts
Details: 21 H post-injection
OBSERVABLE: Biodistribution: muscle (% ID/g)

MOLECULE	OBSERVABLE	DATA VALUE
N=C(N)NCc1ccc(C(=O)NCCCCC(NC(=O)CCCCCCC(=O)NCCCC[C@H](NC(=O)N[C@@H](CCC(=O)O)C(=O)O)C(=O)O)C(=O)O)cc1[131I] (stereo partly drawn) [[^131I] labeled PSMA-904]	Biodistribution: muscle	0.03
N=C(N)NCc1ccc(C(=O)NCCCC[C@H](NC(=O)N[C@@H](CCC(=O)O)C(=O)O)C(=O)O)cc1[131I] [[^131I] labeled 7 (PSMA-620)]	Biodistribution: muscle	0.09
O=C(O)CC[C@H](NC(=O)N[C@@H](CCCCNC(=O)c1ccc([131I])cc1)C(=O)O)C(=O)O [[^131I]YC-I-27]	Biodistribution: muscle	0.14

###

Test system: PSMA + PC-3 PiP and PSMA − PC-3 flu tumor xenografts
Conditions: 2 H post-injection
Label not fulfilled if Biodistribution: lung falls below 2 % ID/g; label fulfilled in every other case.

COMPOUND	CATEGORY
O=C(O)CC[C@H](NC(=O)N[C@@H](CCCCNC(=O)c1ccc([131I])cc1)C(=O)O)C(=O)O [[^131I]YC-I-27]	fulfilled
O=C(O)CC[C@H](NC(=O)N[C@@H](CCC(=O)NCCc1ccc([211At])cc1)C(=O)O)C(=O)O [[^211At]HS-549]	fulfilled
O=C(O)CC[C@H](NC(=O)N[C@@H](CSCc1ccc([125I])cc1)C(=O)O)C(=O)O [[^125I] labeled DCIBC]	not fulfilled
N=C(N)NCc1ccc(C(=O)NCCCCC(NC(=O)CCCCCCC(=O)NCCCC[C@H](NC(=O)N[C@@H](CCC(=O)O)C(=O)O)C(=O)O)C(=O)O)cc1[131I] (some centres unmarked) [[^131I] labeled PSMA-904]	not fulfilled
O=C(O)CC[C@H](NC(=O)NC(CCCCNC(=O)c1ccc([211At])cc1)C(=O)O)C(=O)O (some centres unmarked) [[^211At]YC-I-27]	fulfilled
O=C(O)CC[C@H](NC(=O)N[C@@H](CCC(=O)NCCc1ccc([131I])cc1)C(=O)O)C(=O)O [[^131I]HS-549]	fulfilled

###

System: PSMA + PC-3 PiP and PSMA − PC-3 flu tumor xenografts
Settings: 2 H post-injection
OBSERVABLE: Biodistribution: heart (% ID/g)

MOLECULE	TARGET OR TEST SYSTEM	SCALE UNIT	DATA VALUE
O=C(O)CC[C@H](NC(=O)N[C@@H](CCC(=O)NCCc1ccc([211At])cc1)C(=O)O)C(=O)O [[^211At]HS-549]	PSMA + PC-3 PiP and PSMA − PC-3 flu tumor xenografts	% ID/g	3.36
O=C(O)CC[C@H](NC(=O)N[C@@H](CSCc1ccc([125I])cc1)C(=O)O)C(=O)O [[^125I] labeled DCIBC]	PSMA + PC-3 PiP and PSMA − PC-3 flu tumor xenografts	% ID/g	1.1
O=C(O)CC[C@H](NC(=O)N[C@@H](CCCCNC(=O)c1ccc([131I])cc1)C(=O)O)C(=O)O [[^131I]YC-I-27]	PSMA + PC-3 PiP and PSMA − PC-3 flu tumor xenografts	% ID/g	1.31
O=C(O)CC[C@H](NC(=O)NC(CCCCNC(=O)c1ccc([211At])cc1)C(=O)O)C(=O)O (some centres unmarked) [[^211At]YC-I-27]	PSMA + PC-3 PiP and PSMA − PC-3 flu tumor xenografts	% ID/g	1.79
O=C(O)CC[C@H](NC(=O)N[C@@H](CCC(=O)NCCc1ccc([131I])cc1)C(=O)O)C(=O)O [[^131I]HS-549]	PSMA + PC-3 PiP and PSMA − PC-3 flu tumor xenografts	% ID/g	1.14

###

Test system: PSMA + PC-3 PiP and PSMA − PC-3 flu tumor xenografts
Settings: 21 H post-injection
# Biodistribution: stomach >= 2 % ID/g gives 1, anything below gives -1

COMPOUND	TARGET OR TEST SYSTEM	CATEGORY
O=C(O)CC[C@H](NC(=O)N[C@@H](CCC(=O)NCCc1ccc([131I])cc1)C(=O)O)C(=O)O [[^131I]HS-549]	PSMA + PC-3 PiP and PSMA − PC-3 flu tumor xenografts	-1
O=C(O)CC[C@H](NC(=O)N[C@@H](CCCCNC(=O)c1ccc([131I])cc1)C(=O)O)C(=O)O [[^131I]YC-I-27]	PSMA + PC-3 PiP and PSMA − PC-3 flu tumor xenografts	-1
O=C(O)CC[C@H](NC(=O)N[C@@H](CCC(=O)NCCc1ccc([211At])cc1)C(=O)O)C(=O)O [[^211At]HS-549]	PSMA + PC-3 PiP and PSMA − PC-3 flu tumor xenografts	1
N=C(N)NCc1ccc(C(=O)NCCCCC(NC(=O)CCCCCCC(=O)NCCCC[C@H](NC(=O)N[C@@H](CCC(=O)O)C(=O)O)C(=O)O)C(=O)O)cc1[211At] (stereo partly drawn) [[^211At] labeled PSMA-904]	PSMA + PC-3 PiP and PSMA − PC-3 flu tumor xenografts	1
N=C(N)NCc1ccc(C(=O)NCCCC[C@H](NC(=O)N[C@@H](CCC(=O)O)C(=O)O)C(=O)O)cc1[131I] [[^131I] labeled 7 (PSMA-620)]	PSMA + PC-3 PiP and PSMA − PC-3 flu tumor xenografts	-1

###

# maps each entry to its Biodistribution: stomach
Test system: PSMA + PC-3 PiP and PSMA − PC-3 flu tumor xenografts
Conditions: 2 H post-injection
OBSERVABLE: Biodistribution: stomach (% ID/g)

COMPOUND	OBSERVABLE	DATA VALUE
O=C(O)CC[C@H](NC(=O)N[C@@H](CCCCNC(=O)c1ccc([131I])cc1)C(=O)O)C(=O)O [[^131I]YC-I-27]	Biodistribution: stomach	0.71
N=C(N)NCc1ccc(C(=O)NCCCCC(NC(=O)CCCCCCC(=O)NCCCC[C@H](NC(=O)N[C@@H](CCC(=O)O)C(=O)O)C(=O)O)C(=O)O)cc1[131I] (stereo partly drawn) [[^131I] labeled PSMA-904]	Biodistribution: stomach	1.03
N=C(N)NCc1ccc(C(=O)NCCCC[C@H](NC(=O)N[C@@H](CCC(=O)O)C(=O)O)C(=O)O)cc1[131I] [[^131I] labeled 7 (PSMA-620)]	Biodistribution: stomach	2.55

###

Tested on: PSMA + PC-3 PiP and PSMA − PC-3 flu tumor xenografts
Settings: 21 H post-injection
# Biodistribution: lung per entry
OBSERVABLE: Biodistribution: lung (% ID/g)

MOLECULE	DATA VALUE
N=C(N)NCc1ccc(C(=O)NCCCCC(NC(=O)CCCCCCC(=O)NCCCC[C@H](NC(=O)N[C@@H](CCC(=O)O)C(=O)O)C(=O)O)C(=O)O)cc1[131I] (stereo partly drawn) [[^131I] labeled PSMA-904]	0.03
O=C(O)CC[C@H](NC(=O)N[C@@H](CCC(=O)NCCc1ccc([211At])cc1)C(=O)O)C(=O)O [[^211At]HS-549]	4.26
O=C(O)CC[C@H](NC(=O)N[C@@H](CCCCNC(=O)c1ccc([131I])cc1)C(=O)O)C(=O)O [[^131I]YC-I-27]	1.63
N=C(N)NCc1ccc(C(=O)NCCCC[C@H](NC(=O)N[C@@H](CCC(=O)O)C(=O)O)C(=O)O)cc1[131I] [[^131I] labeled 7 (PSMA-620)]	1.00
N=C(N)NCc1ccc(C(=O)NCCCCC(NC(=O)CCCCCCC(=O)NCCCC[C@H](NC(=O)N[C@@H](CCC(=O)O)C(=O)O)C(=O)O)C(=O)O)cc1[211At] (stereo partly drawn) [[^211At] labeled PSMA-904]	2.89
O=C(O)CC[C@H](NC(=O)N[C@@H](CCC(=O)NCCc1ccc([131I])cc1)C(=O)O)C(=O)O [[^131I]HS-549]	0.87

###

Tested on: PSMA + PC-3 PiP and PSMA − PC-3 flu tumor xenografts
Conditions: 21 H post-injection
OBSERVABLE: Biodistribution: thyroid (% ID/g)

COMPOUND	DATA VALUE
N=C(N)NCc1ccc(C(=O)NCCCC[C@H](NC(=O)N[C@@H](CCC(=O)O)C(=O)O)C(=O)O)cc1[131I] [[^131I] labeled 7 (PSMA-620)]	0.88
O=C(O)CC[C@H](NC(=O)N[C@@H](CCC(=O)NCCc1ccc([211At])cc1)C(=O)O)C(=O)O [[^211At]HS-549]	3.78
N=C(N)NCc1ccc(C(=O)NCCCCC(NC(=O)CCCCCCC(=O)NCCCC[C@H](NC(=O)N[C@@H](CCC(=O)O)C(=O)O)C(=O)O)C(=O)O)cc1[131I] (stereo partly drawn) [[^131I] labeled PSMA-904]	0.42
O=C(O)CC[C@H](NC(=O)N[C@@H](CCC(=O)NCCc1ccc([131I])cc1)C(=O)O)C(=O)O [[^131I]HS-549]	0.36
O=C(O)CC[C@H](NC(=O)N[C@@H](CCCCNC(=O)c1ccc([131I])cc1)C(=O)O)C(=O)O [[^131I]YC-I-27]	0.13
N=C(N)NCc1ccc(C(=O)NCCCCC(NC(=O)CCCCCCC(=O)NCCCC[C@H](NC(=O)N[C@@H](CCC(=O)O)C(=O)O)C(=O)O)C(=O)O)cc1[211At] (stereo partly drawn) [[^211At] labeled PSMA-904]	3.74
